The origin of these recorded values is patent US20260008852A1.

Attribute: ELISA OD450 @ 1 ug/ml
Target: T1, His-tagged cynomolgus monkey B7-H3 (cynomolgus monkey)
T1 chain: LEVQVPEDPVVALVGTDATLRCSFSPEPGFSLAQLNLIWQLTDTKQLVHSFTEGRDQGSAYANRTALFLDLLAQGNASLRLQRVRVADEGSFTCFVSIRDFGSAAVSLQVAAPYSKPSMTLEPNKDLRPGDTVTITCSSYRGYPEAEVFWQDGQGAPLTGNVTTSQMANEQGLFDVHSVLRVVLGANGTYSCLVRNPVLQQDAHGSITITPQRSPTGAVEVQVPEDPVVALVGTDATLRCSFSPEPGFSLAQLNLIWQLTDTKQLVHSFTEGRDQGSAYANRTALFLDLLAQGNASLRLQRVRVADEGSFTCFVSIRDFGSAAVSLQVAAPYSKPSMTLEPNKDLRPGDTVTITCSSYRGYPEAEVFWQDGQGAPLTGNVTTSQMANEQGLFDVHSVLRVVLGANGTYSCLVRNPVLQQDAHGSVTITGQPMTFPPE
Test: ELISA, coated His-tagged antigen, scFv-Fc 1 ug/ml
Measurement Label: ELISA OD450 @ 1 ug/ml (OD450)

- Binder: "40633p1.1.D11 (scFv, V domains shown, Tested as scFv-Fc (Expi293 supernatant)) VH: EVQLLESGGGLVQPGGSLRLSCAASGFTFRSYAMSWVRQAPGKGLEWVAYIGSSGGTTYYADSVKGRFTISRDNSKNTLYLQMNSLRAEDTAVYYCVKESYYYMDVWGQGTTVTVSS VL: QSVLTQPPSASGTPGQRVTISCSATISNIDINRVSWYQQLPGTAPKLLIFNSQRPSGVPDRFSGSKSGTSASLAISGLQSEDEADYYCATWDDSLNSWVFGGGTKLTVL"
  Recorded Measurement: 1.91
- Binder: "40511p1.2.B5 (scFv, V domains shown, Tested as scFv-Fc (Expi293 supernatant)) VH: DVQLVESGGGVVRPGESLRLSCAASGFTFSSYAMSWVRQAPGEGLEWVSSISGSGGSTLYADSVKGRFTISRDSSNNSLYLQMNSLRAEDTAVYYCAKARNNFFDYWGLGTLVTVSS VL: EIVLTQSPGTLTLSPGERATLSCRASRSILTSLAWYQQRPGQTPRLLIYGANSRATGIPDRFSGSGSGTEFTLTISSLQSEDFAVYYCQQYYDWLTITFGGGTKVEIK"
  Recorded Measurement: 2.12
- Binder: "40511p1.1.A1 (scFv, V domains shown, Tested as scFv-Fc (Expi293 supernatant)) VH: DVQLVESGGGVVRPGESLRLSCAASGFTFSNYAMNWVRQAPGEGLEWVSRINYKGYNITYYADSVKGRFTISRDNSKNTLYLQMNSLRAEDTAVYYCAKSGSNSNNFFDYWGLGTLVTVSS VL: EIVLTQSPGTLSVSPGERATLSCRASQSVNSKLAWYQQRPGQAPRLLIYDASSRATGIPDRFSGSGSGTDFTLTISRLEPEDFAVYYCQQYKNWPPLTFGGGTKVEIK"
  Recorded Measurement: 2.27
